For each record, write down the corresponding IC50.
Target: USP14 (Homo sapiens (Human))
Sequence (P54578 whole entry, looked up): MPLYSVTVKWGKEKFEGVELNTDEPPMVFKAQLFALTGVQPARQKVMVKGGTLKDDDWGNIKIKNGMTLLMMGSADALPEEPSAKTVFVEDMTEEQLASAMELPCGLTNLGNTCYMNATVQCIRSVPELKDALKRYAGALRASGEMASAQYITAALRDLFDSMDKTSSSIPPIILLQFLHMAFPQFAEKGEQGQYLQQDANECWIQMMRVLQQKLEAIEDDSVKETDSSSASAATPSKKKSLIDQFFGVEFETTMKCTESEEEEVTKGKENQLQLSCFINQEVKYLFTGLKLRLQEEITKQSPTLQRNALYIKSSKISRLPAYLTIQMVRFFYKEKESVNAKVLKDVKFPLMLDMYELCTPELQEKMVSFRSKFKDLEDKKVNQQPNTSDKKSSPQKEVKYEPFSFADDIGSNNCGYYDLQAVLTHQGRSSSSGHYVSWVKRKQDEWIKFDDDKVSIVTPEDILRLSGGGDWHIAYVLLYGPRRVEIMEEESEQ
Test: Usp14 inhibition assay (Example 57B, B-series compounds)
Format: biochemical
Conditions: IC50 class; average value from a minimum of two experimental determinations
Source text: Example 57B: Usp14 Inhibition Assay The IC50 values in the Table below represent the average value from a minimum of two experimental determinations.

Data request, read-out IC50, for Cc1c(C(=O)CN2[C@@H]3CC[C@@H]2CC(O)C3)cc(CCCCS(C)(=O)=O)n1-c1ccc(C#N)cc1 (stereo partly shown) [Example 7B]
< 50 nM

Any idea what its IC50 is? The compound is Cc1c(C(=O)CN2[C@@H]3CC[C@H]2[C@@H](O)C3)cc(CC2CC(C)(C)C2)n1-c1ccc(C#N)cc1 (racemic) [Example 134B]
< 50 nM

Form field: reported IC50 of Cc1cc(C(=O)CN2C3CCC2[C@@H](O)C3)c(C)n1-c1ccc(C#N)cc1 (mixture of isomers) [Example 64B]
50 to 500 nM

For the compound shown here, Cc1c(C(=O)CN2C3CCC2CC3)cc(/C=C/CCS(C)(=O)=O)n1-c1ccc(C#N)cc1 [Example 35B] , give the reported IC50.
< 50 nM

// returns reported IC50 for input Cc1c(C(=O)CN2C3CCC2[C@@H](O)C3)cc(Br)n1-c1ccc(C#N)cc1 (mixture of isomers) [Example 119B]
50 to 500 nM

Recorded IC50 of Cc1cc(C(=O)CN2C3CCC2(C(=O)O)CC3)c(C)n1-c1ccc(C#N)cc1 [Example 127B] , please.
> 500 nM

What value of IC50 has been reported for the following compound? Cc1c(C(=O)CN2C3CCC2[C@@H](O)C3)cc(C2CCCC2)n1-c1ccc(C#N)cc1 (mixture of isomers) [Example 110B]
50 to 500 nM

---

Target: UniProtKB P54578
Test: Usp14 inhibition assay (Example 5A, A-series compounds)
Format: biochemical
Details: average value from a minimum of two experimental determinations; read-out: Usp14 IC50 Category
pIC50: −log10 of the molar value.
Field: pIC50. Provide a value for each of the compounds that follow.

For the compound shown here, Cc1c(C(=O)CN2C3CCC2CC(O)C3)c2ccc(CCS(=O)(=O)C3CC3)cc2n1-c1ccc(Cl)cc1 (stereo not shown) [Example 23A] , give the reported pIC50.
> 7.30

Recorded pIC50 for Cc1c(C(=O)CN2[C@H]3CC[C@@H]2[C@@H](O)C3)c2ccc(CCS(C)(=O)=O)cc2n1-c1ccc(Cl)cc1 , please?
> 7.30

Entry under review: Cc1c(C(=O)CN2C3CCC2CC(O)C3)c2ccc(CCCC#N)cc2n1-c1ccc(Cl)cc1 (stereo not shown) [Example 25A] . Reported pIC50?
< 7.00

Need pIC50 of Cc1c(C(=O)CN2C3CCC2C(O)C3)c2ccc(CC3COC3)cc2n1-c1ccc(Cl)cc1 (stereo in doubt) [Example 13A] , thanks.
> 7.30

Look up pIC50 for this compound: Cc1c(C(=O)CN2C3CC[C@@H]2C[C@](O)(C(C)(C)C)C3)c2ccc(CCC#N)cc2n1-c1ccc(Cl)cc1 (stereo in doubt) [Example 31A]
< 7.00

I would be grateful if you could share the reported pIC50 for Cc1c(C(=O)CN2C3CCC2[C@@H](O)C3)c2ccc(CCC#N)cc2n1-c1ccc(Cl)cc1 (mixture of isomers) [Example 10A] .
> 7.30

Please report the recorded pIC50 for CO[C@H]1C[C@@H]2CC[C@H]1N2CC(=O)c1c(C)n(-c2ccc(Cl)cc2)c2cc(CC3COC3)ccc12 [Example 12A] .
7.00 to 7.30
